- assay_details: qHTS RealTime-Glo MT Cell Viability Assay in HEK293 cells - 24 hour (AID 1224886); further: nearly all actives have a fitted effect of over 50% in size
- details: RealTime-Glo luminescence; series mostly up to 76.8 µM
Inconclusive results are not listed. Calls of active or inactive are those of the source. The call rests on the fitted dose curve; in most records, active means well fitted cell-killing curve with a large enough effect in the repeat runs; inconclusive means weak or mixed curves, or effect the other way; inactive means flat fitted curve, though single readings scatter.
Bench note: report the call from y = active, n = inactive

Reference set, count: 3
# structure_smiles_string, class_name
records = [
    ("CC1=C(/C=C/C(C)=C/C=C/C(C)=C/C=O)C(C)(C)CCC1", "y"),
    ("CCN(CC)CCNC(=O)c1c(C)[nH]c(/C=C2\\C(=O)Nc3ccc(F)cc32)c1C", "y"),
    ("CC(C)(C)CC(C)(C)c1ccc(O)c(Cc2ccc(Cl)cc2Cl)c1", "y"),
]

### Prompt Would you mind telling me which call this test gave Cc1cc(N)c(S(=O)(=O)O)cc1Cl ?
### Response n

### Prompt Thanks! And CCN(CCC#N)c1ccc(N=Nc2c(Cl)cc([N+](=O)[O-])cc2Cl)cc1 ?
### Response n

### Prompt Thanks! And O=C1Cc2cc(CCN3CCN(c4nsc5ccccc45)CC3)c(Cl)cc2N1 ?
### Response y

### Prompt Thanks! And CN(C)[C@@H]1C(=O)C(C(N)=O)=C(O)[C@@]2(O)C(=O)C3=C(O)c4c(O)ccc(Cl)c4[C@@H](O)[C@H]3C[C@@H]12 ?
### Response n

### Prompt Thanks! And C[n+]1ccn(Cc2ccccc2)c1 ?
### Response n

### Prompt Thanks! And CC(C)(C)c1ccc(C(=O)O)cc1 ?
### Response n

### Prompt Thanks! And CCCCCCCCCOC(=O)c1ccc(O)cc1 ?
### Response y

### Prompt Thanks! And O=C1C=CC(=O)N1 ?
### Response y

### Prompt Thanks! And CCCCCCCCCCCCCCCC[N+](C)(C)CCN(Cc1ccc(OC)cc1)c1ncccn1 ?
### Response y

### Prompt Thanks! And CCCCCCCCCCCCCCCCCC[N+](C)(C)C ?
### Response y

### Prompt Thanks! And O=CC=C(c1ccccc1)c1ccccc1 ?
### Response y

### Prompt Thanks! And CC(C)n1nc(-c2cc3cc(O)ccc3[nH]2)c2c(N)ncnc21 ?
### Response y

### Prompt Thanks! And C[C@H]1[C@H]2CC[C@H]3[C@@H]4CC=C5C[C@@H](N(C)C)CC[C@]5(C)[C@H]4CC[C@]23CN1C ?
### Response n

---

- system_tested: Peroxisome proliferator-activated receptor gamma (Homo sapiens)
- assay_details: qHTS assay to identify small molecule antagonists of the peroxisome proliferator-activated receptor gamma (PPARg) signaling pathway (AID 743191); further: nearly all actives have a fitted effect of over 30% in size
- details: HEK293H PPARg-UAS-bla, beta-lactamase ratio, antagonist, 17 h; series mostly up to 62.6 µM
- Source text: U.S. Tox21 Program National Center for Advancing Translational Sciences [NCATS] NIH Chemical Genomics Center [NCGC] U.S. Environmental Protection Agency [EPA] National Institutes of Environmental Health Sciences [NIEHS] National Toxicology Program [NTP] U.S. Food and Drug Administration [FDA] […]
Records with an inconclusive call do not appear. Activity calls are given as the source filed them. Calls follow the shape of the full dose curve.
Bench note: report the call from active, inactive

Reference set, count: 2
# molecule, class_name
records = [
    ("Oc1ccc2cc(SSc3ccc4cc(O)ccc4c3)ccc2c1", "active"),
    ("O=C1CCCCCN1SSN1CCCCCC1=O", "inactive"),
]

Now turn to the next molecule.
### Prompt Would you mind telling me which call this test gave ON=C1CCCC1 ?
### Response inactive

---

Recorded Potency for the following compounds
- assay_details: qHTS RealTime-Glo MT Cell Viability Assay in HEK293 cells - 40 hour (AID 1224874); further: potency means the concentration at half of the fitted maximal effect; nearly all actives have a fitted effect of over 50% in size
- details: RealTime-Glo luminescence
- Text: U.S. Tox21 Program National Center for Advancing Translational Sciences [NCATS] NIH Chemical Genomics Center [NCGC] U.S. Environmental Protection Agency [EPA] National Institutes of Environmental Health Sciences [NIEHS] National Toxicology Program [NTP] U.S. Food and Drug Administration [FDA] Tox21 Assay Overview: Measure of cell viability is critical in the cell-base assay. Analysis of cell viability is necessary for the characterization of cell responses to cytotoxic drugs and environmental stress. […]
Inconclusive results are not listed. The source made the active and inactive calls. Calls follow the shape of the dose curve; as a rule, active = well fitted cell-killing curve with a large enough effect in the repeat runs; inconclusive = weak or mixed curves, or effect the other way; inactive = flat fitted curve, though single readings scatter.

See these solved cases before continuing.
# compound, recorded_measurement
measured = [
    ("CCCCCCCCCCCCCCCCCC[N+](C)(C)Cc1ccccc1", "1.75 µM (active)"),
    ("CCCCCCCCOC(=O)c1ccc(O)cc1", "27.4 µM (active)"),
    ("CC(C)OC(=O)c1cc2c(OCC(O)CNC(C)(C)C)cccc2[nH]1 (centres undefined)", "9.52 µM (active)"),
    ("CCCCCCCCCCCCCCCC[N+](C)(C)CCN(Cc1ccc(OC)cc1)c1ncccn1", "0.952 µM (active)"),
    ("C/C=C1/C(=O)C[C@H]2[C@@H]3CCC4=CC(=O)CC[C@]4(C)[C@H]3CC[C@]12C", "48.8 µM (active)"),
]

### Prompt # query: Potency of entry Cc1cc(O)c(C(C)(C)C)cc1Sc1cc(C(C)(C)C)c(O)cc1C
### Response 21.8 µM (active)

### Prompt Thanks! And Oc1ccc(N=Nc2ccccc2)cc1 ?
### Response 22.2 µM (active)

### Prompt Thanks! And NC(=O)C1(N2CCCCC2)CCN(CCCN2c3ccccc3CCc3ccc(Cl)cc32)CC1 ?
### Response 21.3 µM (active)

### Prompt Thanks! And On1ccccc1=S ?
### Response 3.85 µM (active)

---

- assay_details: qHTS assay to identify small molecule agonists of the NFkB signaling pathway - cell viability counter screen (AID 1159515); further: nearly all actives have a fitted effect of over 55% in size
- details: NFkB-bla ME-180 viability, CellTiter-Glo luminescence, 5 h; series mostly up to 61 µM
Inconclusive results are not listed. Activity calls are given as the source filed them. Calls follow the shape of the full dose curve.
Bench note: report the call from y for active, n for inactive

Reference set, count: 8
# molecule, class_name
data = [
    ("O=c1c(-c2ccccc2)c1-c1ccccc1", "n"),
    ("COc1cc(/C=C/C(=O)O[C@H]2CC[C@]34C[C@]35CC[C@]3(C)[C@@H]([C@H](C)CCC=C(C)C)CC[C@@]3(C)[C@@H]5CC[C@H]4C2(C)C)ccc1O", "n"),
    ("Cc1ccc(O)c2ncccc12", "y"),
    ("CC(C)(C)C1CCC(CC2=C(O)c3ccccc3C(=O)C2=O)CC1 (stereo not given)", "n"),
    ("CCOC(=O)O[C@]1(C(=O)OCCl)CC[C@H]2[C@@H]3CCC4=CC(=O)C=C[C@]4(C)[C@H]3[C@@H](O)C[C@@]21C", "n"),
    ("C=CC(=O)OCCn1c(=O)n(CCOC(=O)C=C)c(=O)n(CCOC(=O)C=C)c1=O", "n"),
    ("O=C1C=CC(=O)N1", "n"),
    ("Fc1ccc([C@@H]2CCNC[C@H]2COc2ccc3c(c2)OCO3)cc1", "n"),
]

### Prompt Would you mind telling me which call this test gave O=[N+]([O-])c1cc(Cl)c(Cl)c(Cl)c1Cl ?
### Response n

### Prompt Thanks! And Nc1ccc2c3c(cccc13)-c1ccccc1-2 ?
### Response n

---

- assay_details: qHTS RealTime-Glo MT Cell Viability Assay in HEK293 cells - 32 hour (AID 1224868); further: nearly all actives have a fitted effect of over 50% in size; further: potency means the concentration at half of the fitted maximal effect
- details: RealTime-Glo luminescence; series mostly up to 76.8 µM
- Text: National Center for Advancing Translational Sciences [NCATS] NIH Chemical Genomics Center [NCGC] U.S. Environmental Protection Agency [EPA] National Institutes of Environmental Health Sciences [NIEHS] National Toxicology Program [NTP] U.S. Food and Drug Administration [FDA] Measure of cell viability is critical in the cell-base assay. Analysis of cell viability is necessary for the characterization of cell responses to cytotoxic drugs and environmental stress. […]
Inconclusive results are not listed. Activity calls are given as the source filed them. Calls come from the whole dose curve; as a rule, active = well fitted cell-killing curve with a large enough effect in the repeat runs; inconclusive = weak or mixed curves, or effect the other way; inactive = flat fitted curve, though single readings scatter.
metric: Potency

See these solved cases before continuing.
# compound, metric, recorded_measurement
measured = [
    ("CC(C)C(C)(C)C(C)(C)C(C)(C)S", "Potency", "inactive"),
    ("CCC(C)Nc1ccc(NC(C)CC)cc1 (stereo unspecified)", "Potency", "4.45 µM (active)"),
    ("CN(C)c1ccc(C2(c3ccc(N(C)C)cc3)OC(=O)c3cc(N(C)C)ccc32)cc1", "Potency", "inactive"),
    ("C[n+]1cc2c3c(ccc2c2ccc4cc5c(cc4c21)OCO5)OCO3", "Potency", "0.522 µM (active)"),
    ("O=C1C=CC(=O)N1c1ccc(Cc2ccc(N3C(=O)C=CC3=O)cc2)cc1", "Potency", "11 µM (active)"),
    ("CCN(CC)CCNC(=O)c1c(C)[nH]c(/C=C2\\C(=O)Nc3ccc(F)cc32)c1C", "Potency", "10.7 µM (active)"),
    ("NNC(=O)c1cccc(C(=O)NN)c1", "Potency", "inactive"),
    ("Clc1ccc2n[nH]nc2c1", "Potency", "inactive"),
]

### Prompt # query: Potency of entry CCCCCCCCCCCCCC[P+](CCCC)(CCCC)CCCC (tested in a mixture with another compound)
### Response 0.553 µM (active)

### Prompt Thanks! And Nc1ccc2c3c(cccc13)-c1ccccc1-2 ?
### Response 24.8 µM (active)

### Prompt Thanks! And O=C1CCCc2c1cc1ccc3cccc4ccc2c1c34 ?
### Response 11.1 µM (active)
